Cited source: patent US6906098B2

molecules and their reported MIC
# System: M. tuberculosis H37Rv
# Assay: Minimum inhibitory concentration (MIC) in the MABA
# Assay type: cell-based, Mycobacterium tuberculosis
# Condition: Table 5; Alamar assay, M. tuberculosis H37Rv

Molecule | Target Entity | MIC
CCC1CCC2(CC1)OOC1(CC[C@]3(C)C4C[C@H](OC(C)=O)[C@@]5(C)C(CC[C@@H]5C(C)CCC(=O)O)C4[C@H](OC(C)=O)C[C@@H]3C1)OO2 (single isomer, unassigned) [9j/1C39] | M. tuberculosis H37Rv | 6.25 µg/mL
CCNC(=O)CCC(C)[C@H]1CCC2C3C(C[C@H](OC(C)=O)[C@@]21C)[C@@]1(C)CCC2(C[C@H]1C[C@H]3OC(C)=O)OOC1(CCC(C)CC1)OO2 (stereo partly drawn) [23/1C32] | M. tuberculosis H37Rv | >6.25 µg/mL
CC(=O)O[C@H]1CC2C(C3CC[C@H](C(C)CCC(=O)O)[C@]31C)[C@H](OC(C)=O)C[C@@H]1CC3(CC[C@]21C)OOC1(CCC(C)CC1)OO3 (stereo partly drawn) [9h/1C18] | M. tuberculosis H37Rv | >6.25 µg/mL

====

# Tested on: Mycobacterium tuberculosis H37Rv (ATCC 27294)
# Assay: Primary screen, Microplate Alamar Blue Assay (MABA), percent inhibition
# Type: cell-based
# Condition: Mycobacterium tuberculosis, Table 5; Alamar assay, primary screening at 6.25 μg/ml; read-out: % Inhib
molecules and their reported inhibition at 6.25 µg/mL

Molecule | Target Entity | inhibition at 6.25 µg/mL
CC(=O)O[C@H]1CC2C(C3CC[C@H](C(C)CCC(N)=O)[C@]31C)[C@H](OC(C)=O)C[C@@H]1CC3(CC[C@]21C)OOC1(CCCCC1C)OO3 (stereo partly shown) | Mycobacterium tuberculosis H37Rv (ATCC 27294) | 100%
CC(=O)O[C@H]1CC2C(C3CC[C@H](C(C)CCC(N)=O)[C@]31C)[C@H](OC(C)=O)C[C@@H]1CC3(CC[C@]21C)OOC1(CCC(C)CC1)OO3 (stereo partly shown) | Mycobacterium tuberculosis H37Rv (ATCC 27294) | 99%
CC(=O)O[C@H]1CC2C(C3CC[C@H](C(C)CCC(=O)O)[C@]31C)[C@H](OC(C)=O)C[C@@H]1CC3(CC[C@]21C)OOC1(CCCCC1)OO3 (stereo partly shown) | Mycobacterium tuberculosis H37Rv (ATCC 27294) | 33%
CCNC(=O)CCC(C)[C@H]1CCC2C3C(C[C@H](OC(C)=O)[C@@]21C)[C@@]1(C)CCC2(C[C@H]1C[C@H]3OC(C)=O)OOC1(CCC(c3ccccc3)CC1)OO2 (single isomer, unassigned) | Mycobacterium tuberculosis H37Rv (ATCC 27294) | 50%
COC(=O)CCC(C)[C@H]1CCC2C3C(C[C@H](OC(C)=O)[C@@]21C)[C@@]1(C)CCC2(C[C@H]1C[C@H]3OC(C)=O)OOC1(CCCC1)OO2 (stereo partly shown) | Mycobacterium tuberculosis H37Rv (ATCC 27294) | 0%
COC(=O)CCC(C)[C@H]1CCC2C3C(C[C@H](OC(C)=O)[C@@]21C)[C@@]1(C)CCC2(C[C@H]1C[C@H]3OC(C)=O)OOC1(CCCCCCC1)OO2 (stereo partly shown) | Mycobacterium tuberculosis H37Rv (ATCC 27294) | 0%
CNC(=O)CCC(C)[C@H]1CCC2C3C(C[C@H](OC(C)=O)[C@@]21C)[C@@]1(C)CCC2(C[C@H]1C[C@H]3OC(C)=O)OOC1(CCCCC1C)OO2 (stereo partly shown) | Mycobacterium tuberculosis H37Rv (ATCC 27294) | 99%
CCC1CCC2(CC1)OOC1(CC[C@]3(C)C4C[C@H](OC(C)=O)[C@@]5(C)C(CC[C@@H]5C(C)CCC(=O)NC)C4[C@H](OC(C)=O)C[C@@H]3C1)OO2 (single isomer, unassigned) | Mycobacterium tuberculosis H37Rv (ATCC 27294) | 99%
CCC1CCC2(CC1)OOC1(CC[C@]3(C)C4C[C@H](OC(C)=O)[C@@]5(C)C(CC[C@@H]5C(C)CCC(=O)O)C4[C@H](OC(C)=O)C[C@@H]3C1)OO2 (single isomer, unassigned) | Mycobacterium tuberculosis H37Rv (ATCC 27294) | 80%
CC(=O)O[C@H]1CC2C(C3CC[C@H](C(C)CCC(N)=O)[C@]31C)[C@H](OC(C)=O)C[C@@H]1CC3(CC[C@]21C)OOC1(CCC(c2ccccc2)CC1)OO3 (single isomer, unassigned) | Mycobacterium tuberculosis H37Rv (ATCC 27294) | 93%

====

# System: KM-12 colon cancer cell line
# Assay: NCI in vitro antiproliferative screen (SRB), KM-12
# Type: cell-based, human
# Condition: Homo sapiens, KM12; KM-12, after 48 h; read-out: LC50 (the source's name)
compounds and their reported CC50

Compound | Result Units | CC50
C[C@@H]1CC[C@H]2[C@@H](C)C(=O)O[C@@H]3O[C@@]4(C)CC[C@@H]1[C@]32OO4 [Artemisinin, reference compound] | µM | 100
CC(=O)O[C@H]1CC2C(C3CC[C@H](C(C)CCC(N)=O)[C@]31C)[C@H](OC(C)=O)C[C@@H]1CC3(CC[C@]21C)OOC1(CCC(c2ccccc2)CC1)OO3 (single isomer, unassigned) [Compound 1C45] | µM | 7.15
CC(=O)O[C@H]1CC2C(C3CC[C@H](C(C)CCC(=O)O)[C@]31C)[C@H](OC(C)=O)C[C@@H]1CC3(CC[C@]21C)OOC1(CCC(c2ccccc2)CC1)OO3 (single isomer, unassigned) [Compound 1C44] | µM | 40.1
CC(=O)O[C@H]1C(=O)[C@@]2(C)[C@H]([C@H](OC(=O)c3ccccc3)[C@]3(O)C[C@H](OC(=O)[C@H](O)[C@@H](NC(=O)c4ccccc4)c4ccccc4)C(C)=C1C3(C)C)[C@]1(OC(C)=O)CO[C@@H]1C[C@@H]2O [Paclitaxel, reference compound] | µM | 100

====

# Test system: M. tuberculosis H37Rv
# Assay: Minimum inhibitory concentration (MIC) in the MABA
# Assay type: cell-based, Mycobacterium tuberculosis
# Condition: Table 5; Alamar assay, M. tuberculosis H37Rv

Compound | MIC
COC(=O)CCC(C)[C@H]1CCC2C3C(C[C@H](OC(C)=O)[C@@]21C)[C@@]1(C)CCC2(C[C@H]1C[C@H]3OC(C)=O)OOC1(CCC(c3ccccc3)CC1)OO2 (single isomer, unassigned) [Compound 1B14b] | >6.25 mg/L
CCNC(=O)CCC(C)[C@H]1CCC2C3C(C[C@H](OC(C)=O)[C@@]21C)[C@@]1(C)CCC2(C[C@H]1C[C@H]3OC(C)=O)OOC1(CCC(CC)CC1)OO2 (single isomer, unassigned) [31/1C42] | >6.25 mg/L
CCC1CCC2(CC1)OOC1(CC[C@]3(C)C4C[C@H](OC(C)=O)[C@@]5(C)C(CC[C@@H]5C(C)CCC(=O)OC)C4[C@H](OC(C)=O)C[C@@H]3C1)OO2 (single isomer, unassigned) [8j/1B13b] | >6.25 mg/L
CCNC(=O)CCC(C)[C@H]1CCC2C3C(C[C@H](OC(C)=O)[C@@]21C)[C@@]1(C)CCC2(C[C@H]1C[C@H]3OC(C)=O)OOC1(CCC(c3ccccc3)CC1)OO2 (single isomer, unassigned) [Compound 1C52] | >6.25 mg/L
CC(=O)O[C@H]1CC2C(C3CC[C@H](C(C)CCC(N)=O)[C@]31C)[C@H](OC(C)=O)C[C@@H]1CC3(CC[C@]21C)OOC1(CCC(C)CC1)OO3 (stereo partly drawn) [21/1C30] | 6.25 mg/L
CNC(=O)CCC(C)[C@H]1CCC2C3C(C[C@H](OC(C)=O)[C@@]21C)[C@@]1(C)CCC2(C[C@H]1C[C@H]3OC(C)=O)OOC1(CCC(c3ccccc3)CC1)OO2 (single isomer, unassigned) [Compound 1C51] | >6.25 mg/L
CCC1CCC2(CC1)OOC1(CC[C@]3(C)C4C[C@H](OC(C)=O)[C@@]5(C)C(CC[C@@H]5C(C)CCC(N)=O)C4[C@H](OC(C)=O)C[C@@H]3C1)OO2 (single isomer, unassigned) [29/1C40] | 3.13 mg/L
CCCNC(=O)CCC(C)[C@H]1CCC2C3C(C[C@H](OC(C)=O)[C@@]21C)[C@@]1(C)CCC2(C[C@H]1C[C@H]3OC(C)=O)OOC1(CCC(c3ccccc3)CC1)OO2 (single isomer, unassigned) [Compound 1C53] | >6.25 mg/L
CCCNC(=O)CCC(C)[C@H]1CCC2C3C(C[C@H](OC(C)=O)[C@@]21C)[C@@]1(C)CCC2(C[C@H]1C[C@H]3OC(C)=O)OOC1(CCC(CC)CC1)OO2 (single isomer, unassigned) [32/1C43] | >6.25 mg/L

====

# Tested on: TK-10 renal cancer cell line
# Assay: NCI in vitro antiproliferative screen (SRB), TK-10
# Type: cell-based, human
# Condition: TK-10, after 48 h
compounds and their reported TGI

Compound | TGI
CC(=O)O[C@H]1C(=O)[C@@]2(C)[C@H]([C@H](OC(=O)c3ccccc3)[C@]3(O)C[C@H](OC(=O)[C@H](O)[C@@H](NC(=O)c4ccccc4)c4ccccc4)C(C)=C1C3(C)C)[C@]1(OC(C)=O)CO[C@@H]1C[C@@H]2O [Paclitaxel, reference compound] | 50.1 µM
CC(=O)O[C@H]1CC2C(C3CC[C@H](C(C)CCC(=O)O)[C@]31C)[C@H](OC(C)=O)C[C@@H]1CC3(CC[C@]21C)OOC1(CCC(c2ccccc2)CC1)OO3 (single isomer, unassigned) | 5.94 µM
CC(=O)O[C@H]1CC2C(C3CC[C@H](C(C)CCC(N)=O)[C@]31C)[C@H](OC(C)=O)C[C@@H]1CC3(CC[C@]21C)OOC1(CCC(c2ccccc2)CC1)OO3 (single isomer, unassigned) | 4.66 µM
C[C@@H]1CC[C@H]2[C@@H](C)C(=O)O[C@@H]3O[C@@]4(C)CC[C@@H]1[C@]32OO4 [Artemisinin, reference compound] | 100 µM
